Entry source: the supplement of paper PMC7877785

Assay: self-splicing fitness, log relative to wild type (ln ratio); higher = more splicing; Tetrahymena group I intron in knt gene, E. coli kanamycin selection, DiMSum; sequences stand for … in CUCUCU…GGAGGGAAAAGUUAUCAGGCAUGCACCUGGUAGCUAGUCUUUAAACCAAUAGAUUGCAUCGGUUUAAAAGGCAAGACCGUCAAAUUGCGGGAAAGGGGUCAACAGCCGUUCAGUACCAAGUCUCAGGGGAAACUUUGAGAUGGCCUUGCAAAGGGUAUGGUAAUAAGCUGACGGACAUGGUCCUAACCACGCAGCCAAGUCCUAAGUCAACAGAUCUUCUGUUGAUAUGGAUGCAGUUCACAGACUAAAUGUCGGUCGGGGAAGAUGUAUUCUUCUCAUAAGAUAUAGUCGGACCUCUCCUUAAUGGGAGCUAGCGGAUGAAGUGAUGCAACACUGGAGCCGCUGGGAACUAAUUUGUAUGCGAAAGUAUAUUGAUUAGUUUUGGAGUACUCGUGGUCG;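 also: selection with 25 µg/mL kanamycin versus none on LB agar overnight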
Details: 30 °C
Form field: self-splicing fitness (ln) (one value per entry).
# print the numeric value only

Would you please look over these solved cases?
CUACAGCAAUAUUACGGGAC
-2.98
GUUUAGCAAUAUUACGGUAU
-2.05
GUCAAGCAAUAUUACGGGCG
-3.08
CCCUAGCAAUAUUACGAAGC
-2.97
CACUAGCAAUAUUACGGUUA
-1.99

Next:
Q: Please give the measured self-splicing fitness (ln) for this sequence: UAAAAGCAAUAUUACGAGUU
Result: -2.99
